Attribute: Kd
Biological target: T1, recombinant human TIGIT (human, UniProt Q495A1 22-141, limits assumed)
T1 construct: recombinant human TIGIT used in Carterra SPR; also called hTIGIT
T1 sequence (looked up): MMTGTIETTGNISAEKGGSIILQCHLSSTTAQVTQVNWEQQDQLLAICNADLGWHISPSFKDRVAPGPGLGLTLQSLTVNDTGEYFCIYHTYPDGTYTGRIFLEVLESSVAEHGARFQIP
Test: SPR Carterra, average
Experimental: Binding affinities of VHH-Fc proteins to recombinant human TIGIT were measured by SPR using a Carterra instrument (Table 10A). […] Average values reported from measurements from 1-2 samples.

{"columns": ["binder", "Kd [nM]"],
 "data": [
  ["TIGIT-SC90 (Fc fusion, VHH-Fc fusion in assay) VHH: EVQLVESGGGLVQPGGSLRLSCAASGDTFSSKAMGWFRQAPGKEREFVAAIRWSVSSTYYADSVKGRFTISADNSKNTAYLQMNSLKPEDTAVYYCARWTRGLVSGTYYYYMDVWGQGTLVTVSS", 59.5],
  ["TIGIT-SC10 (Fc fusion, VHH-Fc fusion in assay) VHH: EVQLVESGGGLVQPGGSLRLSCAASGNTFSGGFMGWFRQAPGKEREWVASVLRGGYTWYADSVKGRFTISADNSKNTAYLQMNSLKPEDTAVYYCASDPWGTRYFDHWGQGTLVTVSS", 0.328],
  ["TIGIT-SC65 (Fc fusion, VHH-Fc fusion in assay) VHH: EVQLVESGGGLVQPGGSLRLSCAASGFTFGNYDMGWFRQAPGKEREFVAAITGSGRSTYYADSVKGRFTISADNSKNTAYLQMNSLKPEDTAVYYCARGRIAASGTKVYWYFDLWGQGTLVTVSS", 44.9],
  ["TIGIT-SC80 (Fc fusion, VHH-Fc fusion in assay) VHH: EVQLVESGGGLVQPGGSLRLSCAASGNIPPINAMGWFRQAPGKEREFVAAINYSGGSTYYADSVKGRFTISADNSKNTAYLQMNSLKPEDTAVYYCARWHYDILTGYYWLDSWGQGTLVTVSS", 28.3]
]}

Attribution: patent US20260184782A1
